Assay: CCTE_Shafer_MEA_dev_burst_rate: CCTE's Neural Network Formation Assay for Burst Rate, Shafer Lab (AID 2284042)
Activity calls are given as the source filed them. How the source made its calls: active means hit-call score of the fitted dose curve at least 0.9, where 1 is the maximum; inactive means score below 0.9.
Please answer using one outcome listed in YES = active, NO = inactive

Compound	Discrete label
ClC1=C(Cl)C2(Cl)C3C(Cl)C=CC3C1(Cl)C2(Cl)Cl (stereo not given)	YES
CC(C)(C)C(O)(CCc1ccc(Cl)cc1)Cn1cncn1 (stereo not given)	NO
OCCOCCO	NO
ClC1=C(Cl)[C@]2(Cl)[C@H]3[C@H]([C@@H]4C=C[C@H]3C4)[C@@]1(Cl)C2(Cl)Cl	YES

**Query** Each compound tested received a call. Report the one for `CNC(=O)Oc1cccc2c1OC(C)(C)C2` .
**Result** NO

**Query** Each compound tested received a call. Report the one for `CC(C)COC(=O)c1ccccc1C(=O)OCC(C)C` .
**Result** NO

**Query** Each compound tested received a call. Report the one for `CN(C)[C@@H]1C(=O)C(C(N)=O)=C(O)[C@@]2(O)C(=O)C3=C(O)c4c(O)cccc4[C@@](C)(O)[C@H]3C[C@@H]12` .
**Result** NO

**Query** Each compound tested received a call. Report the one for `CCCCOC(=O)c1ccccc1C(=O)OCc1ccccc1` .
**Result** NO

**Query** Each compound tested received a call. Report the one for `O=P(OCCCl)(OCCCl)OCCCl` .
**Result** NO

**Query** Each compound tested received a call. Report the one for `Clc1ccc(C(c2ccc(Cl)cc2)C(Cl)Cl)cc1` .
**Result** YES

These measurements were taken from PubChem BioAssay (EPA / NIEHS).
